test system: SK-OV-3 ovarian; assay: NCI tumour cell line growth inhibition, 48 h
outcome measure: TGI

CCOC(=O)C(=O)Nc1c(C)cccc1C(C)(C)C on SK-OV-3 ovarian gives TGI = > 100 µM

O=C(NNc1ccccc1)c1ccc(Cl)c(Cl)c1 on SK-OV-3 ovarian gives TGI = > 80.1 µM

C=C1C2CC3CCC2C(OC(=O)c2ccccc2C(=O)O)C13 (configuration not stated) on SK-OV-3 ovarian gives TGI = > 100 µM

Cc1c(NC(=O)Nc2c(Cl)cccc2Cl)c(=O)n(-c2ccccc2)n1C on SK-OV-3 ovarian gives TGI = > 100 µM

COc1cccc(N2CCN(c3ncnc4cc[nH]c34)CC2)c1 on SK-OV-3 ovarian gives TGI = > 100 µM

COc1ccc(C(OCC2OC3(COC(c4ccccc4)(c4ccc(OC)cc4)c4ccc(OC)cc4)C(Oc4nc(=O)ccn43)C2O)(c2ccccc2)c2ccc(OC)cc2)cc1 (configuration not stated) on SK-OV-3 ovarian gives TGI = > 100 µM

CN(C(=S)Cc1ccc(Cl)c(Cl)c1)C1CCCC[C@@H]1N1CCCC1 (some centres not stated) on SK-OV-3 ovarian gives TGI = > 100 µM

COc1ccc(C[C@@H](C(=O)O[C@H](C)[C@H](NC(=O)[C@@H](CC(C)C)N(C)C(=O)C2CCCN2C(=O)[C@H](C)O)C(=O)N2CCCCNC(=O)[C@@H](C)C(=O)[C@H](C(C)C)OC(=O)C[C@H](O)[C@H]2CC(C)C)N(C)C(C)=O)cc1 (some centres not stated) on SK-OV-3 ovarian gives TGI = > 50 µM

CC(=O)CCc1ccc(Oc2c3c(nc4ccccc24)OCC3)cc1 on SK-OV-3 ovarian gives TGI = > 100 µM

CC1(C)N=C(c2ccccc2)SC12S[C@@H]1CCCC[C@H]1S2 on SK-OV-3 ovarian gives TGI = > 100 µM

O=[N+]([O-])c1ccc(C2SCc3nc4ccccc4n32)cc1 (configuration not stated) on SK-OV-3 ovarian gives TGI = > 100 µM

Cc1ccc(NC(=S)C#N)c(C)c1 on SK-OV-3 ovarian gives TGI = > 100 µM
